# ASSAY_SUMMARY: Lipid clearance: lipid level in mouse liver tissue (LC-MS/MS)
# Type: in vivo
# RUN_PARAMETERS: mice, intravenous
REPORTED_PROPERTY: original dose remaining in liver tissue 24 hours post dose (%)
Report as a plain number; the unit % is understood.

>>> df
                           molecular_string  readout_number
0  CCCCCCCCCOC(=O)CCCCCCCN(CCCCCCCC(=O)OC(CCCCCCCC)CCCCCCCC)CCCNC(=O)C(C)(C)COC              66
1  CCCCC/C=C\C/C=C\CCCCCCCCN(CCO)CCCCCCCC(=O)OC(CCCCCCCC)CCCCCCCC              67

Q. If you can, please state the reported original dose remaining in liver tissue 24 hours post dose value of "CCCCCCCCC(CCCCCCCC)OC(=O)CCCCCCCN(CCO)CCCCCCCC(=O)OC(CCCCCCCC)CCCCCCCC" .
A. 68

###

# ASSAY_SUMMARY: Chemical stability of lipids in ethanol (lipid purity)
# Assay type: physicochemical
# RUN_PARAMETERS: t = 96 h, 25° C.
REPORTED_PROPERTY: Lipid Purity (%)
Report as a plain number; the unit % is understood.

Would you please look over these solved cases?
In [3]: df
Out[3]:
                           molecular_string  readout_number
0  CCCCCCCCCOC(=O)CCCCCCCN(CCO)CCCCCCCC(=O)OC(CCCCCCCC)CCCCCCCC           94.71
1  CCCCCCCCCOC(=O)CCCCCCCN(CCO)CCCCCCCC(=O)OCCCCCCCCC           98.64
2  CCCCC/C=C\C/C=C\CCCCCCCCN(CCO)CCCCCCCC(=O)OCCCCCCCCC           93.17
3  CCCCCCCCC(CCCCCCCC)OC(=O)CCCCCCCN(CCO)CCCCCCCC(=O)OC(CCCCCCCC)CCCCCCCC           97.67

Query molecule follows.
Q. If you can, please state the reported Lipid Purity value of "CCCCCCCCCCCOC(=O)CCCCCN(CCO)CCCCCCCC(=O)OC(CCCCCCCC)CCCCCCCC" .
A. 96.23

###

# System: IL-6, IP-10
# ASSAY_SUMMARY: Cytokine induction in mice upon intravenous administration
# Type: in vivo
# Design: unit not given here
# RUN_PARAMETERS: intravenous, 0.5 mpk, 6 hours
REPORTED_PROPERTY: Cytokine induction IL-6
Number, no unit, nothing else.

Would you please look over these solved cases?
In [3]: df
Out[3]:
                                   compound  readout_number
0  CCCCCCCCCOC(=O)CCCCCCCN(CCO)CCCCCCCCCC(=O)OC(CCCCCCCC)CCCCCCCC           94.00
1  CCCCCCCCCCCOC(=O)CCCCCN(CCO)CCCCCCCC(=O)OC(CCCCCCCC)CCCCCCCC          233.45
2  CCCCCCCCCOC(=O)CCCN(CCO)CCCCCCCC(=O)OC(CCCCCCCC)CCCCCCCC          273.56
3  CCCCCCCCC(CCCCCCCC)OC(=O)CCCCCCCN(CCO)CCCCCC           94.07
4  CCCCCCCCCOC(=O)CCCCCCCN(CCCCCCCC(=O)OC(CCCCCCCC)CCCCCCCC)C[C@@H](C)O            0.14
5  CCCCCCCCCCCCCCCCCCN(CCO)CCCCCCCC(=O)OC(CCCCCCCC)CCCCCCCC          267.24

Q. If you can, please state the reported Cytokine induction IL-6 value of "CCCCC/C=C\C/C=C\CCCCCCCCN(CCO)CCCCCCCC(=O)OC(CCCCCCCC)CCCCCCCC" .
A. 136.18

Q. # iterate: CCCCCCCCC(CCCCCCCC)OC(=O)CCCCCCCN(CCO)CCCCCCCC(=O)OCC1CC1CCCCCC (centres unmarked)
A. 17.47

Q. # iterate: "CCCCCCCCCOC(=O)CCCCCCCN(CCO)CCCCCC(=O)OC(CCCCCCCC)CCCCCCCC"
A. 161.07

Q. # iterate: "CCCCCCCCCCCOC(=O)CCCCCN(CCO)CCCCCC(=O)OCCCCCCCCCCC"
A. 327.15

Q. # iterate: CCCCC/C=C\C/C=C\CCCCCCCCC(CCCCCCCC/C=C\C/C=C\CCCCC)OC(=O)CCCN(C)C [MC3, DLin-MC3-DMA, reference compound]
A. 124.42

Q. # iterate: "CCCCCCCCCOC(=O)CCCCCCCN(CCO)CCCCCCCC(=O)OCCCCCCCCC"
A. 23.38

Q. # iterate: "CCCCCCCCCN(CCO)CCCCCCCC(=O)OC(CCCCCCCC)CCCCCCCC"
A. 282.88

Q. # iterate: "CCCCCCCCCOC(=O)CCCCCCCN(CCCCCCCC(=O)OC(CCCCCCCC)CCCCCCCC)CCOC(C)=O"
A. 317.45
